Origin of the recorded values: patent US4826994A

assay_explanation: Drug Effects on Phenylbenzoquinone-induced Writhing in Mice
Assay type: in vivo, Male Swiss albino mice
run_parameters: Mus musculus, po, Tested at 10 mg/kg, p.o., read-out: Phenylquinone Writhing in Mice, percent inhibition
endpoint_label: inhibition in vivo at 10 mg/kg (%)
Write down the numeric answer in % and omit the unit.

compound="CCC1(CC(=O)O)OCC(Cc2ccc(F)cc2)c2c1[nH]c1ccccc21 (single isomer, unassigned)" assay_value=47

## Input Please give measured inhibition in vivo at 10 mg/kg of the following entry: CCC1(CC(=O)O)OCC(Cc2ccc(Cl)cc2)c2c1[nH]c1ccccc21 (single isomer, unassigned)
## Output 24

## Input Please give measured inhibition in vivo at 10 mg/kg of the following entry: CCC1(CC(=O)O)OCC(Cc2cccc(C(F)(F)F)c2)c2c1[nH]c1ccccc21 (single isomer, unassigned)
## Output 22

## Input Please give measured inhibition in vivo at 10 mg/kg of the following entry: CCC1(CC(=O)O)OCC(Cc2ccc(F)cc2F)c2c1[nH]c1ccccc21 (single isomer, unassigned)
## Output 29
